Target: Nuclear receptor subfamily 1 group I member 2 (Homo sapiens) (UniProt O75469)
Sequence (O75469 whole entry, looked up): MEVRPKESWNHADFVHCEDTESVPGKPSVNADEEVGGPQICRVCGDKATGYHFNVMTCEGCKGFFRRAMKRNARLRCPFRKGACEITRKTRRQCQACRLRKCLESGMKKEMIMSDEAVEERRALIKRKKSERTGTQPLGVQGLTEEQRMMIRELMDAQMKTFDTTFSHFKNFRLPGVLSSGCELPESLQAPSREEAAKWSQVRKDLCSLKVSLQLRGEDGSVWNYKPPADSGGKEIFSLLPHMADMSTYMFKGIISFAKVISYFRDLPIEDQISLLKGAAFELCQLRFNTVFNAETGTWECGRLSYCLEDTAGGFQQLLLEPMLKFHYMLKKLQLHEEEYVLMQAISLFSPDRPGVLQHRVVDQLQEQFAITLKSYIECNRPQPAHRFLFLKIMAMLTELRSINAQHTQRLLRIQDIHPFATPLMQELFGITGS
Test: Human pregnane X receptor (PXR) small molecule agonists, qHTS assay (AID 1346982); also: nearly all actives have a fitted effect of over 35% in size
Settings: PXR-Luc HepG2, CYP3A4 luciferase reporter, 24 h; series mostly up to 92.4 µM
Records with an inconclusive call do not appear. Calls of active or inactive are those of the source. Calls follow the shape of the dose curve; as a rule, active = well fitted activation curve with a large enough effect in the repeat runs; inconclusive = weak or mixed curves; inactive = no such curve, though single readings can be large or run the other way.
# valid calls are class 1 for active, class 0 for inactive; nothing else

Take a look at these entries with their results.
[[record]]
line_notation = "CC(=O)C=O"
group_label = "class 0"

[[record]]
line_notation = "CSc1c(Cl)c(Cl)c(Cl)c(Cl)c1Cl"
group_label = "class 1"

[[record]]
line_notation = "CCOC(/C=C(\\C)CCC=C(C)C)OCC"
group_label = "class 0"

[[record]]
line_notation = "O=C[C@H](O)[C@H](O)[C@H](O)CO"
group_label = "class 0"


Below: the item to evaluate.
## Input Recorded test outcome, item `CCCCCCCCCCCCCc1ccccc1`
## Output class 0
